tested on: HT29; assay: Antiproliferative activity, resazurin assay, 72 h; format: cell-based, human
metricName: GI50 (nM)
Kindly answer with a numeric value in nM, unit omitted.

                                     smiles  metricname  measureunit  valuemeasured
0  [Br-].[Br-].c1cc2c(s1)c(N1CCCC1)nc[n+]2Cc1ccc(CCCCc2ccc(C[n+]3cnc(N4CCCC4)c4sccc43)cc2)cc1        GI50           nM           1480

Ask: Look at this compound and give its reported GI50. [Br-].[Br-].c1cc2c(N3CCCCCC3)nc[n+](Cc3ccc(CCc4ccc(C[n+]5cnc(N6CCCCCC6)c6ccsc65)cc4)cc3)c2s1
Result: 1420

----------
test system: Jurkat; experiment: Antiproliferative activity, resazurin assay, 72 h; type: cell-based, human
metricName: GI50 (µM)
Your answer should be a plain number; it is taken to be in µM.

>>> print(df.to_string())
                                   compound  systemundertest  metricname  measureunit  valuemeasured
0  [Br-].[Br-].c1cc2c(s1)c(N1CCCC1)cc[n+]2Cc1ccc(CCCCc2ccc(C[n+]3ccc(N4CCCC4)c4sccc43)cc2)cc1 [Ff-1]           Jurkat        GI50           µM           4.13

Ask: I am curious: what GI50 value has been reported for [Br-].[Br-].c1cc2c(N3CCCCCC3)nc[n+](Cc3ccc(-c4ccc(C[n+]5cnc(N6CCCCCC6)c6ccsc65)cc4)cc3)c2s1 [Fg-18] ?
Result: 7.04

Ask: Name the recorded GI50 for [Br-].[Br-].c1cc2c(s1)c(N1CCCC1)nc[n+]2Cc1ccc(CCCCc2ccc(C[n+]3cnc(N4CCCC4)c4sccc43)cc2)cc1 [Ff-7] .
Result: 8.61

----------
# GI50 per record follows
tested on: HeLa; assay: Antiproliferative activity, resazurin assay, 72 h; type: cell-based, human

As a guide, the following entries are already answered.
>>> df
                                     smiles  systemundertest  valuemeasured
0  [Br-].[Br-].c1cc2c(s1)c(N1CCCCC1)nc[n+]2Cc1ccc(CCCCc2ccc(C[n+]3cnc(N4CCCCC4)c4sccc43)cc2)cc1             HeLa         280 nM
1  [Br-].[Br-].c1cc2c(s1)c(N1CCCC1)cc[n+]2Cc1ccc(-c2ccc(C[n+]3ccc(N4CCCC4)c4sccc43)cc2)cc1             HeLa     > 10000 nM

Below: the item to evaluate.
Ask: May I ask what GI50 has been recorded for [Br-].[Br-].c1cc2c(N3CCCCC3)nc[n+](Cc3ccc(CCc4ccc(C[n+]5cnc(N6CCCCC6)c6ccsc65)cc4)cc3)c2s1 ?
Result: 1400 nM

----------
experiment: Solubility as observed in the enzyme inhibition assays; type: physicochemical; parameters: key: -: The compound was not soluble; conditions: CK inhibition assay at 10 and 30 µM
metricName: solubility (footnote b)

>>> df
                                     smiles  valuemeasured
0  [Br-].[Br-].c1cc2c(s1)c(N1CCCCC1)nc[n+]2Cc1ccc(CCc2ccc(C[n+]3cnc(N4CCCCC4)c4sccc43)cc2)cc1           - ^b
1  [Br-].[Br-].c1cc2c(s1)c(N1CCCCCC1)nc[n+]2Cc1ccc(CCc2ccc(C[n+]3cnc(N4CCCCCC4)c4sccc43)cc2)cc1           - ^b
2  [Br-].[Br-].c1cc2c(N3CCCCCC3)nc[n+](Cc3ccc(-c4ccc(C[n+]5cnc(N6CCCCCC6)c6ccsc65)cc4)cc3)c2s1           - ^b
3  [Br-].[Br-].c1cc2c(N3CCCCCC3)nc[n+](Cc3ccc(CCc4ccc(C[n+]5cnc(N6CCCCCC6)c6ccsc65)cc4)cc3)c2s1           - ^b
